Reported VanAB specific activity values follow for various molecules
- TARGET OR SYSTEM: VanAB (vanillate demethylase; purified VanA and VanB subunits) (Pseudomonas putida)
- Sequence (Q88GI5 entry or part of it): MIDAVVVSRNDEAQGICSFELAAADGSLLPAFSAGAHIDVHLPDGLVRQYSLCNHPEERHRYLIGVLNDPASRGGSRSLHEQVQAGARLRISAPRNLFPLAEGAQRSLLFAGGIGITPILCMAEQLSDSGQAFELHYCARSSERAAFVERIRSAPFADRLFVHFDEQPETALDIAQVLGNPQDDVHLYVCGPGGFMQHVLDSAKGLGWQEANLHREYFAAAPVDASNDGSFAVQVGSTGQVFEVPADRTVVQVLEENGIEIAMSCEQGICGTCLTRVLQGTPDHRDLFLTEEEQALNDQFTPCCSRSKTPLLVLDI
- Sequence (Q88GI6 entry or part of it): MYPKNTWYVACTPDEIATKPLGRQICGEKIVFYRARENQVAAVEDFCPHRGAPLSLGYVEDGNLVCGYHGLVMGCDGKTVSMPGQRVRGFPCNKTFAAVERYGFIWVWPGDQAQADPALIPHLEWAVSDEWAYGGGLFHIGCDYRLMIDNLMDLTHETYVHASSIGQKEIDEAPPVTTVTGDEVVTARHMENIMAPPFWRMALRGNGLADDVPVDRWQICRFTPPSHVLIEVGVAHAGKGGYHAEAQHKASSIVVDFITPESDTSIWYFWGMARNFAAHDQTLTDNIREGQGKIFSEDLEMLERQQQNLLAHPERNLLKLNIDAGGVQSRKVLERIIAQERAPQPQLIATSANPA
- ASSAY REMARKS: VanAB in vitro enzymatic assay (kinetics and specific activity, NADPH consumption at 340 nm)
- MEASUREMENT CONDITIONS: 100 μM substrate, 100 μM NADPH, pH 7.5
REPORTED ENDPOINT: VanAB specific activity (U/mg)

molecule="COc1cc(C(=O)O)cc(OC)c1O [Syringate, syringic acid]" uom=U/mg reading=704
molecule="COc1cc(C(=O)O)cc(O)c1O [3-MGA, 3-O-methyl gallate]" uom=U/mg reading=264
molecule="COc1cc(C(=O)O)ccc1O [Vanillate, vanillate]" uom=U/mg reading=403
molecule="CCOC(=O)c1ccc(O)c(OC)c1 [Ethylvanillate, ethyl vanillate]" uom=U/mg reading=100
molecule=COc1cc(C=O)ccc1O uom=U/mg reading=49
molecule=COc1ccccc1O uom=U/mg reading=188

# credit: patent US11136601B2
